Tested on: COLO 205 colon
Experiment: NCI tumour cell line growth inhibition, 48 h; in the data active = GI50 below about 0.43 µM; inactive = the rest
Possible outcomes: YES (active), NO (inactive)

COMPOUND | LABEL VALUE
Cn1ccnc1C(=O)/C=C/c1ccc(C(=O)Nc2c(F)c(F)c(F)c(F)c2F)cc1 | NO
O=c1nc2[nH]c3c(-c4n[nH]c(=O)[nH]c4=O)cccc3c2n[nH]1 | NO
O=C(OC[C@@H]1CO1)c1cccc2c(=O)c3ccccc3[nH]c12 | YES
COc1ccc(OCC(O)CN2CCN(c3ccc(Cl)cc3)CC2)cc1 (stereo not given) | NO
Fc1ccc(-c2nn3c(COc4ccc(Cl)cc4)nnc3s2)cc1Oc1ccccc1 | NO
Cc1ccnc(Nc2ccc([N+](=O)[O-])c(NCCN3CCOCC3)n2)c1 | YES
OCC#Cc1ccccc1C#Cc1ccc(C#Cc2ccccc2)cc1 | NO
COc1cc2c(cc1OCCCOc1ccc(-c3cc4ccccc4c4ccccc34)cc1)N=C[C@@H]1CCCN1C2=O | NO
CCN(CC)CCNc1ccc([N+](=O)[O-])c2sc3cc(Cl)ccc3c(=O)c12 | NO
COc1ccc(Cc2nc3cc(OC)c(OC)cc3c(=O)[nH]2)cc1 | NO

meta.source: PubChem BioAssay (NCI)
